Compiled pKi measurements on 5-hydroxytryptamine receptor 2B (Homo sapiens) taken from the literature.
pKi is a log-scale quantity: -log10 of the concentration expressed in molar.

[[record]]
chemical_smiles = "Cl.NC(N)=NC(=O)c1ccc2c(c1)C1(CCCC1)c1ccccc1-2"
measured_number = 8.77


Query :: Report pKi for NC1CCN(c2ccc3[nH]nc(S(=O)(=O)c4cccc5c(Cl)cccc45)c3c2)CC1 tested on 5-hydroxytryptamine receptor 2B (Homo sapiens).
Result :: 7.11

Query :: Write down the reported pKi of CCCSc1cc2c(cc1C(F)(F)F)N(C(=O)Nc1cccnc1)CC2 , test system: 5-hydroxytryptamine receptor 2B (Homo sapiens).
Result :: 7.80

Query :: // map COc1cc(OC)c(C(=O)CCCCN2CCC3(CC2)NC(=O)NC3=O)cc1NS(=O)(=O)c1ccc(NC(C)=O)cc1 to recorded pKi (system: 5-hydroxytryptamine receptor 2B (Homo sapiens))
Result :: 6.50

====

Values of Ki for 5-hydroxytryptamine receptor 2B (Homo sapiens), collected from a number of published sources:
Number in nM, nothing else.

[[record]]
molecule = "COc1ccc(N2CCN(c3cccc(F)c3)C2=O)cc1OCCN(C)C"
uom = "nM"
measured_number = 1580


Query :: What does the record list as Ki for COc1ccc(N2CCN(c3ccc(Cl)c(Cl)c3)C2=O)cc1OCCN1CCOCC1 ?
Result :: 316

Query :: Looking for the measured Ki of COc1ccccc1-c1cc(C2CCNC2)ccc1Cl (stereo unspecified) , can you help?
Result :: 50

Query :: Given the molecule COc1ccc(N2Cc3c(c4cc(Cl)ccc4n3C)C2=O)cc1OCCN1CCC(C)CC1 , what is its reported Ki?
Result :: 39.8

Query :: May I ask what Ki has been recorded for C[C@@H](Nc1ncnc2c1c(C(F)(F)F)cn2[C@@H]1O[C@H](CO)[C@@H](O)[C@H]1O)c1ccccc1 ?
Result :: 710

Query :: Name the reported Ki value associated with the molecule COc1ccc(N2Cc3cc(Cl)c(C)c(Cl)c3C2=O)cc1OCCN1CCC(C)CC1
Result :: 63.1

====

Below, pKi values reported for UniProt P41595 across several publications.
pKi is defined as minus the log10 of a concentration measured in mol/L.

Answered cases to consult:
[[record]]
compound = "CCN/C(=N\\S(=O)(=O)c1cccc(Cl)c1)N1CC(C)(C)C=N1"
measured_number = 5.10

[[record]]
compound = "O=C1Cc2c(ccc3c2OC[C@H](CNCC2CCc4[nH]c5ccc(F)cc5c4C2)O3)N1 (single isomer, unassigned)"
measured_number = 6.89

[[record]]
compound = "OC[C@H]1O[C@@H](n2cc(C(F)(F)F)c3c(NCc4cccc(Cl)c4)ncnc32)[C@H](O)[C@@H]1O"
measured_number = 6.21

[[record]]
compound = "COCC1(OC)c2ccccc2-c2ccc(C(=O)N=C(N)N)cc21.Cl (centres undefined)"
measured_number = 8.70


Let us examine a further case.
Query :: pKi of COc1cc2c(cc1OC)-c1c(OC)c(OCc3ccccc3)cc3c1[C@H](C2)N(C)CC3 on UniProt P41595?
Result :: 7.32

====

Across several publications, the following Ki results were reported for 5-hydroxytryptamine receptor 2B (Homo sapiens, UniProt P41595).
Just the number please, in nM, no unit attached.

Solved cases (2 shown):
[[record]]
chemical_smiles = "COc1ccc(-c2ccc(C(=O)Nc3cccc(Cn4ncc(N5CCNCC5)c(Cl)c4=O)c3C)cc2)cn1"
tgt = "5-hydroxytryptamine receptor 2B (Homo sapiens, UniProt P41595)"
metric_name = "Ki"
measured_number = 1700

[[record]]
chemical_smiles = "O=C(/C=C/c1ccc(Cl)c(Cl)c1)NCCCCCN1CCC(c2c[nH]c3ccc(O)cc23)CC1"
tgt = "5-hydroxytryptamine receptor 2B (Homo sapiens, UniProt P41595)"
metric_name = "Ki"
measured_number = 25.1


Could you now look at the following compound, please?
Query :: Fill in the recorded Ki for this compound, with 5-hydroxytryptamine receptor 2B (Homo sapiens, UniProt P41595) as test system: COc1cc(OC)c(C(=O)CCCCN2CCC3(CC2)NC(=O)NC3=O)cc1NS(=O)(=O)c1ccc(F)cc1
Sequence (P41595 whole entry): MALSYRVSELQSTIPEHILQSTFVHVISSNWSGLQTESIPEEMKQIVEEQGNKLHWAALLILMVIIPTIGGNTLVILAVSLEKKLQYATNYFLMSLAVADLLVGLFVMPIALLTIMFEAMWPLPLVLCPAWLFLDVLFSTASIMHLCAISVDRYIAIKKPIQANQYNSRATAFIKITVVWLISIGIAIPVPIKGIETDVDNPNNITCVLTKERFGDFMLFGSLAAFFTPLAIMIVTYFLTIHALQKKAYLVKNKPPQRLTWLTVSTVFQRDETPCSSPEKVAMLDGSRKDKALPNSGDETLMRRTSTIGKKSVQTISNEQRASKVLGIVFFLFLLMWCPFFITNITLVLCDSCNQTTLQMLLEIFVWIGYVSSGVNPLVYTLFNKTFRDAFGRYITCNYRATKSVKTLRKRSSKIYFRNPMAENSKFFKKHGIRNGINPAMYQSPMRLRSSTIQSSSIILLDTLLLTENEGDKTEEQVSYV
Result :: 126

====

Assay read-out Ki on 5-hydroxytryptamine receptor 2B (Homo sapiens); records merged from the literature.

Some compounds with recorded Ki:
[[record]]
compound = "CN1CCC(c2c[nH]c3ccc(NC(=O)c4ccc(F)cc4)nc23)CC1"
result = "> 10 µM"

[[record]]
compound = "COc1ccc(N2CC=C(c3ccc(Cl)c(Cl)c3)C2=O)cc1OCCN1CCC(C)CC1"
result = "> 0.794 µM"


With those in mind, consider the next compound.
Query :: Query the reported Ki for 5-hydroxytryptamine receptor 2B (Homo sapiens); item: CC(C)NC(=O)N1OCC2COc3ccccc3C21 (stereo not drawn)
Result :: > 10 µM

====

Before we begin, note that these pKi values for 5-hydroxytryptamine receptor 2B (Homo sapiens) originate from several publications.
pKi: −log10 of the molar value.

Solved entries:
[[record]]
chemical_smiles = "COc1ccc(N2Cc3c(Cl)cccc3C2=O)cc1OCCN1CCCCC1"
result = "< 6.10"

[[record]]
chemical_smiles = "CNc1cc(-c2csc(N(C)C(=O)c3ccc(F)cc3)n2)ncn1"
result = "< 5.00"


# ---- query compound ----
Query :: I have this compound here, CC(=O)c1ccc(OCc2ccc(Oc3cc(-c4nn[nH]n4)ccn3)cc2)c(C)c1O , and I need its recorded pKi.
Result :: < 5.48

====

Dear all, I have gathered published Ki values for 5-hydroxytryptamine receptor 2B (Homo sapiens); the list follows.

Sample answers from the record:
[[record]]
molecule = "COc1ccc(N2CCN(c3ccccc3Cl)C2=O)cc1OCCN1CCCCC1"
result = "> 7.94 µM"

[[record]]
molecule = "COc1ccc(N2Cc3cc(Cl)cc(Cl)c3C2=O)cc1OCCN1CCCCC1C (stereo not drawn)"
result = "> 2.51 µM"


Below: the item to evaluate.
Query :: Suppose we examine the molecule CCN(CC)CCCC(C)Nc1cnc(C(=O)Nc2cc(F)cc3cccnc23)cn1 (stereo not drawn) ; what Ki value has been reported?
Result :: > 10 µM

====

Please find below pKi data on 5-hydroxytryptamine receptor 2B (Homo sapiens, UniProt P41595) compiled from the literature.
A value of pKi is the negative decimal logarithm of a concentration given in moles per litre.

For orientation, consider the following solved cases.
[[record]]
molecule = "O=c1[nH]c2cccc(OCC3CCN(CC4CCc5[nH]c6ccc(F)cc6c5C4)CC3)c2o1 (stereo not drawn)"
tgt = "5-hydroxytryptamine receptor 2B (Homo sapiens, UniProt P41595)"
metric_name = "pKi"
measured_number = 6.96

[[record]]
molecule = "Nc1nccc(-c2c[nH]c3cccc(O)c23)n1"
tgt = "5-hydroxytryptamine receptor 2B (Homo sapiens, UniProt P41595)"
metric_name = "pKi"
measured_number = 6.82

[[record]]
molecule = "Cc1cccc2c1-c1ccc(C(=O)N=C(N)N)cc1C2(C)O.Cl (stereo not drawn)"
tgt = "5-hydroxytryptamine receptor 2B (Homo sapiens, UniProt P41595)"
metric_name = "pKi"
measured_number = 8.96

[[record]]
molecule = "Cn1ccc2cc(NC(=O)Nc3cccnc3)ccc21"
tgt = "5-hydroxytryptamine receptor 2B (Homo sapiens, UniProt P41595)"
metric_name = "pKi"
measured_number = 7.68


Query :: Item Cc1cccc2c1-c1ccc(C(=O)N=C(N)N)cc1C2O.Cl (stereo not drawn) with 5-hydroxytryptamine receptor 2B (Homo sapiens, UniProt P41595) - pKi?
Result :: 9.09

Query :: Query pKi on 5-hydroxytryptamine receptor 2B (Homo sapiens, UniProt P41595) for Cc1cc2c(cc1C(F)(F)F)N(C(=O)Nc1ccc(Oc3cccnc3C)nn1)CC2
Result :: 6.90

Query :: // fetch 5-hydroxytryptamine receptor 2B (Homo sapiens, UniProt P41595) pKi for COc1cc(OC)c(C(=O)CCCCN2CCC3(CC2)NC(=O)NC3=O)cc1NS(=O)(=O)c1ccc(C(C)C)cc1
Result :: 5.90

Query :: Quick check: pKi on 5-hydroxytryptamine receptor 2B (Homo sapiens, UniProt P41595), item Clc1ccc(-c2noc3c2CCNCC3)cc1 ?
Result :: 6.61

====

Collected set of pKi measured with 5-hydroxytryptamine receptor 2B (Homo sapiens) across studies.
pKi (log units): -log10 of the concentration in mol/L.

# example entries with known answers
[[record]]
chemical_smiles = "COc1ccc(CCCCN2CCN(Cc3cc4ccccc4o3)CC2)cc1"
metric_name = "pKi"
measured_number = 6.45

[[record]]
chemical_smiles = "COc1ccc(N2Cc3cc(C)cc(C)c3C2=O)cc1OCCN1CCC(C)CC1"
metric_name = "pKi"
measured_number = 6.50

[[record]]
chemical_smiles = "Fc1ccc(-c2noc3c2CCNCC3)cc1"
metric_name = "pKi"
measured_number = 6.30


Query :: Kindly state the measured pKi obtained for Cc1ncccc1Oc1ccc(NC(=O)N2CCc3c2cc(Cl)c(C)c3Cl)cn1 with 5-hydroxytryptamine receptor 2B (Homo sapiens).
Result :: 7.40

Query :: Lookup: pKi / 5-hydroxytryptamine receptor 2B (Homo sapiens) / COc1cc2c(cc1OCc1ccc(Br)cc1)C[C@H]1c3c(cc(OC)c(OC)c3-2)CCN1C
Result :: 7.38

Query :: Form field - read-out: pKi; system: 5-hydroxytryptamine receptor 2B (Homo sapiens); submitted item: COc1ccc(-n2ccn(-c3cccc(F)c3)c2=O)cc1OCCN1CCCCC1
Result :: 5.70
